Test system: Nude mice, LX-1 lung xenograft intrarenal, tumor weight T/C
Experiment: NCI In Vivo Anticancer Drug Screen. Data for tumor model Human Lung LX-1 Xenograft (intrarenal inoculation) in NU/NU BALB/C (nude) mice
Conditions: endpoint: mean tumor weight change; dose: 200.0 mg/kg/injection; schedule: Q04DX003 (sc); vehicle: saline with Tween-80; higher = larger tumour
Protocol: The antitumor activity of compounds was measured in mice bearing transplantable tumors. Survival or tumor size were measured and the results are expressed as the measurement made in the treated group (T) divided by the measurement made in the vehicle treated control group (C). The tumor model used in this assay is Human Lung LX-1 Xenograft (intrarenal inoculation) in NU/NU BALB/C (nude) mice
Inconclusive results are not listed.
PROPERTY_NAME: T/C

The examples below pair each entry with its known result.
C[Si](C)(C)O/C=C1\CCCCC1=O    92 % of control
Cc1ccc(S(=O)(=O)NC(=O)OC23COCN2COC3)cc1    118 % of control
Nc1nnc[se]1    40 % of control
O=C1N=C(Oc2ccccc2)SC1=O    93 % of control

T/C lookup needed for OC1(CSc2ccccc2)CCCCC1 , thanks. 75 % of control

###

System: Nude mice, LX-1 lung xenograft intrarenal, tumor weight T/C
Assay: NCI In Vivo Anticancer Drug Screen. Data for tumor model Human Lung LX-1 Xenograft (intrarenal inoculation) in NU/NU BALB/C (nude) mice
Details: endpoint: mean tumor weight change; dose: 100.0 mg/kg/injection; schedule: Q04DX003 (sc); vehicle: saline; higher = larger tumour
Inconclusive results are not listed.
PROPERTY_NAME: T/C

CCC(C(=O)O)C(=O)O.[NH-]CC1CCCC[N-]1.[Pt+2]    114 % of control
Nc1ncn(C2OC(CO)C(O)C2O)c(=O)n1 (centres undefined)    34 % of control
CC[As](=O)(O)CC    51 % of control

I'd like to know its T/C. The molecule in question is NC1=NC(=O)N2CC12 (centres undefined) 102 % of control

###

Test system: Nude mice, LX-1 lung xenograft intrarenal, tumor weight T/C
Assay: NCI In Vivo Anticancer Drug Screen. Data for tumor model Human Lung LX-1 Xenograft (intrarenal inoculation) in NU/NU BALB/C (nude) mice
Conditions: endpoint: mean tumor weight change; dose: 12.5 mg/kg/injection; schedule: Q01DX010 (sc); vehicle: saline with Tween-80; higher = larger tumour
Inconclusive results are not listed.
PROPERTY_NAME: T/C

What reported T/C corresponds to CN(N=O)C(N)=O on Nude mice, LX-1 lung xenograft intrarenal, tumor weight T/C? -68 % of control

// repeat for O=NN(CCCl)C(=O)NC1CCC(=O)NC1=O (centres undefined) and report -100 % of control

Continue with CN(C)c1nc(N(C)C)nc(N(C)C)n1 63 % of control

Again, but for Cc1cc(NCCCCCCCNc2cc(C)nc3cc(N)ccc23)c2ccc(N)cc2n1 48 % of control

###

Test system: Nude mice, LX-1 lung xenograft intrarenal, tumor weight T/C
Test: NCI In Vivo Anticancer Drug Screen. Data for tumor model Human Lung LX-1 Xenograft (intrarenal inoculation) in NU/NU BALB/C (nude) mice
Conditions: endpoint: mean tumor weight change; dose: 100.0 mg/kg/injection; schedule: Q01DX010 (sc); vehicle: saline; higher = larger tumour
Inconclusive results are not listed.
PROPERTY_NAME: T/C

Example cases with answers are listed next.
CN1c2c(nc(N)[nH]c2=O)NCC1CCNc1ccc(C(=O)NC(CCC(=O)O)C(=O)O)cc1 (stereo unspecified)    56 % of control
NC1=NCN(C2OC(CO)C(O)C2O)C(=O)N1 (stereo unspecified)    112 % of control
CNC(=O)ON(C(C)=O)C(=O)NC    41 % of control
CNNCc1ccc(C(=O)NC(C)C)cc1    8 % of control
c1cc2n(n1)CCN2    12 % of control

// switching to the query compound
Short answer please: T/C, Nude mice, LX-1 lung xenograft intrarenal, tumor weight T/C, entry Cc1cc2nc3[nH]c4ccccc4c3nc2cc1C 88 % of control

###

Tested on: Nude mice, LX-1 lung xenograft intrarenal, tumor weight T/C
Test: NCI In Vivo Anticancer Drug Screen. Data for tumor model Human Lung LX-1 Xenograft (intrarenal inoculation) in NU/NU BALB/C (nude) mice
Settings: endpoint: mean tumor weight change; dose: 75.0 mg/kg/injection; schedule: Q04DX003 (sc); vehicle: saline with Tween-80; higher = larger tumour
Inconclusive results are not listed.
PROPERTY_NAME: T/C

CCC1CCCCN1C(=S)N/N=C(\C)c1ccccn1 (centres undefined)    81 % of control
O=S(=O)(N=N/C=C1\C=CC=CN1O)c1cccs1    82 % of control
CCN(CC)Cc1cc2[nH]c3c4ccc(Cl)cc4ncc3c2cc1OC    73 % of control

// next entry
Missing value: T/C, Nude mice, LX-1 lung xenograft intrarenal, tumor weight T/C, entry FC(F)(F)c1nc2nc(Cl)c(Cl)nc2[nH]1 . Fill in? 116 % of control

###

Test system: Nude mice, LX-1 lung xenograft intrarenal, tumor weight T/C
Experiment: NCI In Vivo Anticancer Drug Screen. Data for tumor model Human Lung LX-1 Xenograft (intrarenal inoculation) in NU/NU BALB/C (nude) mice
Details: endpoint: mean tumor weight change; dose: 400.0 mg/kg/injection; schedule: Q01DX010 (sc); vehicle: saline; higher = larger tumour
Records with an inconclusive call do not appear.
PROPERTY_NAME: T/C

Record excerpt, results attached:
O=c1cnn(C2OC(CO)C(O)C2O)c(=O)[nH]1 (configuration not stated)    46 % of control
NC(=O)NO    105 % of control
N/C=N/O    161 % of control
Cc1cc2nc3[nH]c4ccccc4c3nc2cc1C    92 % of control

Identify the measured T/C of CNNCc1ccc(C(=O)NC(C)C)cc1 for Nude mice, LX-1 lung xenograft intrarenal, tumor weight T/C. -65 % of control

Entry CN1c2c(nc(N)[nH]c2=O)NCC1CCNc1ccc(C(=O)NC(CCC(=O)O)C(=O)O)cc1 (configuration not stated) please 49 % of control

Further, for C1CN2CN3CCN(CN1C3)C2 ? 23 % of control

###

Listing of recorded T/C by entry.
System: Nude mice, LX-1 lung xenograft intrarenal, tumor weight T/C
Test: NCI In Vivo Anticancer Drug Screen. Data for tumor model Human Lung LX-1 Xenograft (intrarenal inoculation) in NU/NU BALB/C (nude) mice
Details: endpoint: mean tumor weight change; dose: 1200.0 mg/kg/injection; schedule: Q04DX003 (sc); vehicle: saline; higher = larger tumour
Results filed as inconclusive are left out.

Here's what some known entries look like.
CCN(CC)CCOCCO    77 % of control
O=C1CCC(=O)N1CO    63 % of control
NC(CCC(=O)NC(CS)C(=O)NCC(=O)O)C(=O)O (configuration not stated)    74 % of control

Next compound, please.
// returns reported T/C for input NC(N)=NOCC[C@@H](N)C(=O)O 82 % of control

###

System: Nude mice, LX-1 lung xenograft intrarenal, tumor weight T/C
Assay: NCI In Vivo Anticancer Drug Screen. Data for tumor model Human Lung LX-1 Xenograft (intrarenal inoculation) in NU/NU BALB/C (nude) mice
Details: endpoint: mean tumor weight change; dose: 4.0 mg/kg/injection; schedule: Q01DX010 (sc); vehicle: saline; higher = larger tumour
Results filed as inconclusive are left out.
// reported T/C per item

Answered examples (3):
N[C@@H](Cc1ccc(N(CCCl)CCCl)cc1)C(=O)O    13 % of control
CC[C@H]1CN2CCc3cc(OC)c(OC)cc3[C@@H]2C[C@@H]1C[C@H]1NCCc2cc(OC)c(OC)cc21    81 % of control
S=P(N1CC1)(N1CC1)N1CC1    77 % of control

With those in mind, consider the next molecule.
Quick one: T/C for COc1cccc2c1C(=O)c1c(O)c3c(c(O)c1C2=O)C[C@@](O)(C(C)=O)C[C@@H]3OC1CC(N)C(O)C(C)O1 (some centres undefined) ? 153 % of control

###

System: Nude mice, LX-1 lung xenograft intrarenal, tumor weight T/C
Test: NCI In Vivo Anticancer Drug Screen. Data for tumor model Human Lung LX-1 Xenograft (intrarenal inoculation) in NU/NU BALB/C (nude) mice
Details: endpoint: mean tumor weight change; dose: 400.0 mg/kg/injection; schedule: Q04DX003 (sc); vehicle: saline with Tween-80; higher = larger tumour
Results filed as inconclusive are left out.
PROPERTY_NAME: T/C

Nc1nnc[se]1    30 % of control
Cc1ccc(S(=O)(=O)NC(=O)OC23COCN2COC3)cc1    121 % of control
OC1(CSc2ccccc2)CCCCC1    85 % of control

# next compound below
Recorded T/C for O=C1N=C(Oc2ccccc2)SC1=O , please? 54 % of control

###

System: Nude mice, LX-1 lung xenograft intrarenal, tumor weight T/C
Assay: NCI In Vivo Anticancer Drug Screen. Data for tumor model Human Lung LX-1 Xenograft (intrarenal inoculation) in NU/NU BALB/C (nude) mice
Details: endpoint: mean tumor weight change; dose: 100.0 mg/kg/injection; schedule: Q01DX010 (sc); vehicle: Klucel (hydroxypropylcellulose) (HPC); higher = larger tumour
Inconclusive results are not listed.
Each entry below carries its reported T/C.

# annotated cases, reported T/C shown
CN(C)N=Nc1ccc(S(N)(=O)=O)cc1    -13 % of control
C/C(=C\c1ccccc1)[N+](=O)[O-]    97 % of control
CNc1nc(NC)nc(NC)n1    107 % of control
CC(=O)O[C@H]1C(=O)[C@@]2(C)[C@H]([C@H](OC(=O)c3ccccc3)[C@]3(O)C[C@H](OC(=O)[C@H](O)[C@@H](NC(=O)c4ccccc4)c4ccccc4)C(C)=C1C3(C)C)[C@]1(OC(C)=O)CO[C@@H]1C[C@@H]2O    93 % of control
Nc1nc(=S)c2ncn(C3CC(O)C(CO)O3)c2[nH]1 (configuration not stated)    118 % of control
O=C(NO)c1ccccc1    120 % of control

Which T/C reading was recorded for the molecule COc1cc2cc(c1Cl)N(C)C(=O)C[C@H](OC(=O)[C@H](C)N(C)C(C)=O)[C@]1(C)O[C@H]1[C@H](C)[C@@H]1C[C@@](O)(NC(=O)O1)[C@H](OC)C=C/C=C(\C)C2 ? 3 % of control
